Molecular target: T1, ADAAD S558A (Bos taurus (bovine), UniProt Q9TTA5 221-940, S778A)
T1 sequence: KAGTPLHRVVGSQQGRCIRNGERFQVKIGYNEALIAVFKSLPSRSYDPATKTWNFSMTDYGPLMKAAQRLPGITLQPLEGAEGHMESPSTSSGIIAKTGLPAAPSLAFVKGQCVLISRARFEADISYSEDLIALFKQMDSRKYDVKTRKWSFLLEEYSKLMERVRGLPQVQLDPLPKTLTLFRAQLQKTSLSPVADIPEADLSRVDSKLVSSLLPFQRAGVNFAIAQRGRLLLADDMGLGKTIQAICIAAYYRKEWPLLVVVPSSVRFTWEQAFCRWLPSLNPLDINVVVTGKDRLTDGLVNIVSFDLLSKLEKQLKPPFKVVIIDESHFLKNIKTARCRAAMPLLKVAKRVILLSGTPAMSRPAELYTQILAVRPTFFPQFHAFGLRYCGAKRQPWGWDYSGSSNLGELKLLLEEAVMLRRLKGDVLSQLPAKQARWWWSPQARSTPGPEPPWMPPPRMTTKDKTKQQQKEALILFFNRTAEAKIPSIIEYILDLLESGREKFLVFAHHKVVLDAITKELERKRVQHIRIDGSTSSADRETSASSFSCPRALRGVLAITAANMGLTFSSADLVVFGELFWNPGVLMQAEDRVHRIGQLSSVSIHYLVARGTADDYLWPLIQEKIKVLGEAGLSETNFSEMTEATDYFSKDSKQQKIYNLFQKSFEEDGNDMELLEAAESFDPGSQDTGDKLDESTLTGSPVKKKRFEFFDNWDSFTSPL
Assay: intrinsic tryptophan fluorescence titration; no ATP; Fluorescence titration (ex 295 nm, em 340 nm), one-site saturation fit; buffer, salt, pH and temperature not given in the material. Wild-type ADAAD Kd values are cited from ref 24 and not listed
Conditions: protein: recombinant; tags: His (Ni-NTA, pET-14b); hairpin
Property Measured: Kd (nM)
Numbers only, in nM.

# input Data request, read-out Kd, for GCGCAATTGCGCTCGACGATTTTTTAGCGCAATTGCGC (structured_DNA) [slDNA (stem-loop DNA)]
# output 11
